All figures here come from paper PMC12416549.

- Tested Target: T1, TNFR1 (Homo sapiens, UniProt P19438)
- T1 chain: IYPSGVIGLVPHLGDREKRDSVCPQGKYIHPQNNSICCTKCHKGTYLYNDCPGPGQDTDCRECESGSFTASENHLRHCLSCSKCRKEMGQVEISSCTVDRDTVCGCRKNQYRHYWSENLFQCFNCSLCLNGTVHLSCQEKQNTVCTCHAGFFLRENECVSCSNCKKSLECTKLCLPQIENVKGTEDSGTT
- Protocol Text: yeast display SC50
What apparent Kd (screen) was measured for each of the following?
Answer in nM, number only, no unit symbol.

Which value of apparent Kd (screen) has been reported for F63C (designed binder) MTLQELLREEALRRAEAEAFRYALELLAEKFPEQKEYLLDLAEEIESQIRSLSGVDVEDVRKCLDKEWAWVKELLAEHPAELAEVEAARAARLAELRAEVEAKVAA in the records?
6.43

Which value of apparent Kd (screen) has been reported for Q48T (designed binder) MTLQELLREEALRRAEAEAFRYALELLAEKFPEQKEYLLDLAEEIESTIRSLSGVDVEDVRKFLDKEWAWVKELLAEHPAELAEVEAARAARLAELRAEVEAKVAA in the records?
1.54
